tested on: S. aureus DSM 20231; experiment: Bliss interaction score (quartile over a dose matrix) (fitness difference); higher = more antagonism (negative = synergy)
Label label 0 if Bliss interaction score falls below -0.1; label label 1 in every other case.

[
  {
    "Compound": "Cc1ccc(-c2cc(C(F)(F)F)nn2-c2ccc(S(N)(=O)=O)cc2)cc1 [Celecoxib] + CN(C)C(=O)C(CCN1CCC(O)(c2ccc(Cl)cc2)CC1)(c1ccccc1)c1ccccc1 [Loperamide]",
    "Cat": "label 0"
  }
]

Does the compound CCCCCCCCCC(=O)N[C@@H](Cc1c[nH]c2ccccc12)C(=O)N[C@H](CC(N)=O)C(=O)N[C@@H](CC(=O)O)C(=O)N[C@@H]1C(=O)NCC(=O)N[C@@H](CCCN)C(=O)N[C@@H](CC(=O)O)C(=O)N[C@H](C)C(=O)N[C@@H](CC(=O)O)C(=O)NCC(=O)N[C@H](CO)C(=O)N[C@@H]([C@H](C)CC(=O)O)C(=O)N[C@@H](CC(=O)c2ccccc2N)C(=O)O[C@@H]1C [Daptomycin] + COc1cccc2c1C(=O)c1c(O)c3c(c(O)c1C2=O)C[C@@](O)(C(=O)CO)C[C@@H]3O[C@H]1C[C@H](N)[C@H](O)[C@H](C)O1 [Doxorubicin] have recorded Bliss interaction score that is -0.1 or more? label 1

----------
test system: S. pneumoniae D39V; assay: fitness (endpoint OD595 vs no drug) (fraction); higher = more growth; details: first compound 17.14 µg/mL; partner 4 µg/mL
Label not met if fitness falls below 0.9; label met in every other case.

Here are 3 compounds together with their reported answers.
[
  {
    "Compound": "CN(C)C(=O)C(CCN1CCC(O)(c2ccc(Cl)cc2)CC1)(c1ccccc1)c1ccccc1 [Loperamide] + CN[C@@H]1[C@H](O[C@H]2[C@H](O[C@H]3[C@H](O)[C@@H](O)[C@H](N=C(N)N)[C@@H](O)[C@@H]3N=C(N)N)O[C@@H](C)[C@]2(O)C=O)O[C@@H](CO)[C@H](O)[C@H]1O [Streptomycin]",
    "Cat": "met"
  },
  {
    "Compound": "CN(C)C(=O)C(CCN1CCC(O)(c2ccc(Cl)cc2)CC1)(c1ccccc1)c1ccccc1 [Loperamide] + Cc1cc(NS(=O)(=O)c2ccc(N)cc2)no1 [Sulfamethoxazol]",
    "Cat": "met"
  },
  {
    "Compound": "CN(C)C(=O)C(CCN1CCC(O)(c2ccc(Cl)cc2)CC1)(c1ccccc1)c1ccccc1 [Loperamide] + COc1ccc(C[C@H](N)C(=O)N[C@H]2[C@@H](O)[C@H](n3cnc4c(N(C)C)ncnc43)O[C@@H]2CO)cc1 [Puromycin]",
    "Cat": "not met"
  }
]

As a next step, examine the compound that follows.
Does the compound CN(C)C(=O)C(CCN1CCC(O)(c2ccc(Cl)cc2)CC1)(c1ccccc1)c1ccccc1 [Loperamide] + CN[C@@H]1[C@H](O)[C@H](NC)[C@H]2O[C@@]3(O)C(=O)C[C@@H](C)O[C@H]3O[C@@H]2[C@H]1O [Spectinomycin] have recorded fitness that is 0.9 or more? met

----------
Give fitness for every item shown.
system: S. aureus DSM 20231; assay: fitness (endpoint OD595 vs no drug) (fraction); higher = more growth; details: first compound 0.25 µg/mL; partner 0.25 µg/mL
One number for each entry.

Record excerpt, results attached:
[
  {
    "Molecule": "CC1(C)S[C@@H]2[C@H](NC(=O)[C@H](N)c3ccc(O)cc3)C(=O)N2[C@H]1C(=O)O [Amoxicillin] + CO/N=C(\\C(=O)N[C@@H]1C(=O)N2C(C(=O)[O-])=C(C[N+]3(C)CCCC3)CS[C@H]12)c1csc(N)n1 [Cefepime]",
    "fitness": 0.195
  },
  {
    "Molecule": "CO/N=C(\\C(=O)N[C@@H]1C(=O)N2C(C(=O)[O-])=C(C[N+]3(C)CCCC3)CS[C@H]12)c1csc(N)n1 [Cefepime] + COc1cc(Cc2cnc(N)nc2N)cc(OC)c1OC [Trimethoprim]",
    "fitness": 0.573
  },
  {
    "Molecule": "CC1(C)S[C@@H]2[C@H](NC(=O)[C@H](N)c3ccc(O)cc3)C(=O)N2[C@H]1C(=O)O [Amoxicillin] + CC1=C\\[C@@H](O)CC(=O)Cc2nc(co2)C(=O)N2CCC=C2C(=O)O[C@H](C(C)C)[C@H](C)/C=C/C(=O)NC\\C=C\\1 [Virginiamycin M1]",
    "fitness": 0.0398
  },
  {
    "Molecule": "CCCCCCCCCC(=O)N[C@@H](Cc1c[nH]c2ccccc12)C(=O)N[C@H](CC(N)=O)C(=O)N[C@@H](CC(=O)O)C(=O)N[C@@H]1C(=O)NCC(=O)N[C@@H](CCCN)C(=O)N[C@@H](CC(=O)O)C(=O)N[C@H](C)C(=O)N[C@@H](CC(=O)O)C(=O)NCC(=O)N[C@H](CO)C(=O)N[C@@H]([C@H](C)CC(=O)O)C(=O)N[C@@H](CC(=O)c2ccccc2N)C(=O)O[C@@H]1C [Daptomycin] + CC(=O)NC[C@H]1CN(c2ccc(N3CCOCC3)c(F)c2)C(=O)O1 [Linezolid]",
    "fitness": 0.595
  },
  {
    "Molecule": "CC1(C)S[C@@H]2[C@H](NC(=O)[C@H](N)c3ccc(O)cc3)C(=O)N2[C@H]1C(=O)O [Amoxicillin] + COc1cc(Cc2cnc(N)nc2N)cc(OC)c1OC [Trimethoprim]",
    "fitness": 0.037
  }
]

Parameters: items (list). Returns: fitness for each item.
1. CCCCCCCCCC(=O)N[C@@H](Cc1c[nH]c2ccccc12)C(=O)N[C@H](CC(N)=O)C(=O)N[C@@H](CC(=O)O)C(=O)N[C@@H]1C(=O)NCC(=O)N[C@@H](CCCN)C(=O)N[C@@H](CC(=O)O)C(=O)N[C@H](C)C(=O)N[C@@H](CC(=O)O)C(=O)NCC(=O)N[C@H](CO)C(=O)N[C@@H]([C@H](C)CC(=O)O)C(=O)N[C@@H](CC(=O)c2ccccc2N)C(=O)O[C@@H]1C [Daptomycin] + COc1cc(Cc2cnc(N)nc2N)cc(OC)c1OC [Trimethoprim]
2. CO/N=C(\C(=O)N[C@@H]1C(=O)N2C(C(=O)[O-])=C(C[N+]3(C)CCCC3)CS[C@H]12)c1csc(N)n1 [Cefepime] + CC(=O)NC[C@H]1CN(c2ccc(N3CCOCC3)c(F)c2)C(=O)O1 [Linezolid]

1: 0.553; 2: 0.655
